Assay: reversal of MRP1-mediated doxorubicin resistance, pilot screen, H69AR cells, doxorubicin co-treatment (AID 601)
Conditions: H69AR cells + 2 uM doxorubicin, CellTiter-Glo, 72 h; at 10 µM; active compounds read high
MEASURED_ATTRIBUTE: differential viability (reversal) (%)
Give bare numbers, in %.

>>> df
                                   compound                 measured_attribute  observed
0  CCS(=O)(=O)N1CCCC(c2nc(-c3cccc(OC)c3)no2)C1 (stereo unspecified)  differential viability (reversal)     0.525

List reported differential viability (reversal) for each of these compounds:
1. CCC(CO)Nc1ncnc2c1cnn2-c1ccc(Cl)cc1 (stereo unspecified)
2. CCOC(=O)C1CCN(c2c(N3CCCC(C(=O)OCC)C3)c(=O)c2=O)CC1 (stereo unspecified)
3. COCCn1c(C23CC4CC(CC(C4)C2)C3)n[nH]c1=S
4. COc1cc2c(cc1NC(=O)CN1CCN(S(=O)(=O)c3ccc(F)cc3)CC1)oc1ccccc12
5. Cc1cc(C)n(CC2CC(=O)N(c3ccc(Cl)c(Cl)c3)C2=O)n1 (stereo unspecified)
6. CCOc1ccccc1N(C(=O)Cn1nnnc1-c1ccc(C)o1)C(CC)C(=O)NC(C)(C)C (stereo unspecified)
7. CCn1nc(C(=O)OCC(=O)N2CCc3ccccc32)c2ccccc2c1=O

result:
1: 13.5; 2: -3.29; 3: 1.57; 4: 1.29; 5: 10.4; 6: -14.7; 7: 2.27

List reported differential viability (reversal) for each of these compounds:
1. C=CCN1C(=O)C2(c3ccccc31)C1CCCC=C1C(C#N)=C(N)C2(C#N)C#N (stereo unspecified)
2. CCOC(=O)N1CCC(N2CC34C=CC(O3)C(C(=O)O)C4C2=O)CC1 (stereo unspecified)
3. O=C(Nc1ccccc1)N(CCN1CCOCC1)Cc1ccccc1F
4. O=C(O)C1C2CCC(O2)C1C(=O)NCCC1=CCCCC1 (stereo unspecified)
5. Cc1ccc(CNC(=O)COC(=O)c2c(C)noc2C)cc1
6. COc1cc2nc(C3CCC3)n(NC(=O)C3CCCC(OC)C3)c(=O)c2cc1OC (stereo unspecified)

result:
[-13.9, 18.3, -16, -9.07, 7.25, -5.31]

List reported differential viability (reversal) for each of these compounds:
1. N#CC1=C(N)OC(c2ccccc2)=C(C#N)C1c1ccc2c(c1)OCO2 (stereo unspecified)
2. CS(=O)(=O)Nc1ccc(C(=O)NCc2ccco2)cc1

result:
1: 13.3; 2: 2.3
